The reported measurements were obtained from PubChem BioAssay AID1963871.

- System: KRAS-mutant PDC multicell tumor spheroid viability;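 also: viability read after seven days of drug exposure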
- METHOD: Anticancer human tumor 521955-158-R2-J5-PDC patient-derived pancreatic carcinoma cell line growth inhibition [KRAS2]
- CONDITION_SET: second compound 1 µM; first compound 0.00316 µM; hits give low values
RECORDED_ENDPOINT: viability, T/C (%)
Please state the figure in %; there is no need to write the unit.

-- ask What does the data say about its viability, T/C? Entry: CC(C)n1nc(-c2ccc3oc(N)nc3c2)c2c(N)ncnc21 + C=CC(=O)N1CCN(c2nc(=O)n(-c3c(C)ccnc3C(C)C)c3nc(-c4c(O)cccc4F)c(F)cc23)C(C)C1
-- reply 64.3

-- ask What does the data say about its viability, T/C? Entry: CCN1CCN(Cc2ccc(Nc3ncc(F)c(-c4cc(F)c5nc(C)n(C(C)C)c5c4)n3)nc2)CC1 + CC1OCC2(CCN(c3cnc(Sc4ccnc(N)c4Cl)c(N)n3)CC2)C1N
-- reply 70.6

-- ask What does the data say about its viability, T/C? Entry: Cn1ncnc1[C@H]1c2n[nH]c(=O)c3cc(F)cc(c23)N[C@@H]1c1ccc(F)cc1 + CC1OCC2(CCN(c3cnc(Sc4ccnc(N)c4Cl)c(N)n3)CC2)C1N
-- reply 52.7

-- ask What does the data say about its viability, T/C? Entry: CC(C)n1nc(-c2ccc3oc(N)nc3c2)c2c(N)ncnc21 + CC1OCC2(CCN(c3cnc(Sc4ccnc(N)c4Cl)c(N)n3)CC2)C1N
-- reply 45
